Numbers sourced from patent US20230389548A1.

test system: Digitaria sanguinalis (DIGSA); assay: Post-emergence glasshouse spray test, visual percentage phytotoxicity after 13 days; type: in vivo; details: B1; 10 g/ha post-emergence
Measured metric: DIGSA percentage phytotoxicity (%)
Supply the numeric figure in %, leaving out any unit text.

These solved cases illustrate the format of a correct answer.
>>> df
                                        mol                 measured_metric  test_value
0  Nc1c(F)c(-c2ccc3cc[nH]c3c2F)nc(C(=O)O)c1Cl  DIGSA percentage phytotoxicity          43
1  FC(F)c1cc(-c2c(Cl)cccc2Oc2ncc(Cl)cn2)on1  DIGSA percentage phytotoxicity          78
2  COc1c(Cl)ccc(-c2nc(C(=O)OCc3ccccc3)c(Cl)c(N)c2F)c1F  DIGSA percentage phytotoxicity          10

API: the following record is the query input.
Query block: Using the record for CS(=O)(=O)c1ccc(C(=O)C2C(=O)CCCC2=O)c(Cl)c1OCCC1OCCO1 , state its measured DIGSA percentage phytotoxicity.
Result block: 0
